Please go through the items and note down their IC90.
# Test system: M. tuberculosis H37Rv growth inhibition, 7H9 media
# assay-procedure: M. tuberculosis growth inhibition, HTS (AID 449762);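 note: bacterial growth assessed after seven days of incubation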
# condition-context: measured here: IC90 growth inhibition
Records with an inconclusive call do not appear.
Dear colleague, please return just the value in µM, with no unit written.

Which IC90 value belongs to CCOc1cc(CNCCCN2CCOCC2)cc(Br)c1OCC(=O)Nc1cccc(C(F)(F)F)c1 ?
31.7

Which IC90 value belongs to Cc1ccc(-c2csc(N3CCN(CCCn4c(-c5ccncc5)nc5ccccc54)CC3)n2)cc1 ?
26.5

Which IC90 value belongs to Nc1ccc(S(=O)(=O)Nc2cnc3ccccc3n2)cc1 ?
52

Which IC90 value belongs to CCCCCc1ccc(S(=O)(=O)NCCc2ccncc2)cc1 ?
42.8

----------
# System: M. tuberculosis H37Rv growth inhibition, 7H9 media
# assay-procedure: M. tuberculosis growth inhibition, HTS (AID 449762);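 note: bacterial growth assessed after seven days of incubation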
# condition-context: measured here: IC90 growth inhibition
Inconclusive results are not listed.
Please go through the items and note down their IC90.
Dear colleague, please return just the value in µM, with no unit written.

Request: IC90, test system M. tuberculosis H37Rv growth inhibition, 7H9 media, entry O=C(C/C=N\OCc1ccc([N+](=O)[O-])cc1)Nc1ccc(F)cc1F
98.4

Request: IC90, test system M. tuberculosis H37Rv growth inhibition, 7H9 media, entry COc1ccccc1C1c2ccc3ccccc3c2Oc2ncn(CCN(C)C)c(=N)c21 (stereo not given)
24.9

Request: IC90, test system M. tuberculosis H37Rv growth inhibition, 7H9 media, entry Cc1ccccc1NC1=C/C(=N\S(=O)(=O)c2cccs2)c2ccccc2C1=O
11.8

Request: IC90, test system M. tuberculosis H37Rv growth inhibition, 7H9 media, entry c1ccc2c(c1)ncn2CCCCOc1ccc2c(c1)CCC2
25.7

----------
# Test system: M. tuberculosis H37Rv growth inhibition, 7H9 media
# assay-procedure: M. tuberculosis growth inhibition, HTS (AID 449762);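 note: bacterial growth assessed after seven days of incubation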
# condition-context: measured here: IC90 growth inhibition
Results filed as inconclusive are left out.
measured-metric: IC90

Which IC90 value belongs to Cc1nc(SCC(=O)NCC2CCCO2)c2c3c(sc2n1)CCCC3 (centres undefined) ?
24.6 µM

Which IC90 value belongs to CCOC(=O)c1ccc(N=C2C(=S)N(c3ccc(C(=O)OCC)cc3)C(=N)N2/N=C/c2ccccc2)cc1 ?
> 100 µM

Which IC90 value belongs to Cc1ccc(OCc2cc(C(=O)N(C)Cc3cnc4ccccn34)no2)cc1C ?
32 µM

Which IC90 value belongs to O=C(CSc1ncnc2nc[nH]c12)c1ccc(Cl)cc1 ?
13.9 µM

Which IC90 value belongs to CC1=CC(=O)c2c(O)ccc(O)c2C1=O ?
12.2 µM

Which IC90 value belongs to COc1ccc2[nH]c3c(C)c4ccncc4c(C)c3c2c1 ?
2.68 µM

Which IC90 value belongs to O=C(OCC(=O)N1CCC(c2ccccc2)=N1)c1ccc(Cl)s1 ?
> 25 µM

Which IC90 value belongs to CC(C)(C)c1ccc(-c2nc3[nH]c(=O)cc(NC(=O)c4ccco4)n3n2)cc1 ?
> 100 µM

Which IC90 value belongs to CN(Cc1ccc(Br)cc1)C(=O)CCN1C(=O)c2cccc([N+](=O)[O-])c2C1=O ?
> 100 µM

Which IC90 value belongs to CC(C)(C)c1ccc(OCCCC(=O)NC2=NCCS2)cc1 ?
60.6 µM

Which IC90 value belongs to CC(OC(=O)COc1ccc(Nc2ccccc2)cc1)C(=O)N(C)c1ccccc1 (centres undefined) ?
4.17 µM

Which IC90 value belongs to CCCC(=O)OCCNc1cc(SCCC(=O)OC)c2nonc2c1[N+](=O)[O-] ?
5.7 µM

Which IC90 value belongs to Cc1ccccc1N1CCN(c2ncnc3c2cnn3Cc2ccc(Cl)cc2)CC1 ?
8.72 µM

Which IC90 value belongs to O=C1c2ccccc2C(=O)N1Nc1ccccc1 ?
> 100 µM

Which IC90 value belongs to Cc1nc(S/C(=C/c2ccc(-c3ccc(Cl)cc3)o2)C(=O)O)n[nH]1 ?
> 100 µM

Which IC90 value belongs to O=C(CCl)c1ccc2c(c1)CCN2C(=O)C1CCCCC1 ?
> 100 µM

Which IC90 value belongs to CC(C)(C)OC(=O)NNc1c2ccccc2nc2ccccc12 ?
25.7 µM

Which IC90 value belongs to CCCc1ccc2oc(C(=O)N(C)Cc3nccs3)c(C)c2c1 ?
60.3 µM

Which IC90 value belongs to CCCOc1cccc(C(=O)NC(=S)Nc2ccc(N3CCN(C)CC3)cc2)c1 ?
> 100 µM

Which IC90 value belongs to CCOC(=O)c1ccc(NC(=O)CCc2nc(-c3ccc(Cl)cc3)no2)cc1 ?
> 100 µM

Which IC90 value belongs to NC(=O)c1ccc(N=Cc2ccc([N+](=O)[O-])s2)cc1 ?
13.6 µM

Which IC90 value belongs to C/C(=N\NC(=O)COc1ccc(C)cc1Br)c1cc([N+](=O)[O-])cs1 ?
34.1 µM

Which IC90 value belongs to Cc1ccc(S(=O)(=O)CNC(=S)c2ccc3ccccc3c2)cc1 ?
> 100 µM

Which IC90 value belongs to CCOC(=O)Cn1nc(-c2ccccc2)nc1-c1ccccc1 ?
22.7 µM

Which IC90 value belongs to CN1CCN(c2ccc(S(=O)(=O)N3CCCCC3)cc2NC(=O)/C=C/c2ccc(Cl)c([N+](=O)[O-])c2)CC1 ?
38.7 µM

Which IC90 value belongs to c1ccc(-c2ccccc2OCCCCn2ccnc2)cc1 ?
25.6 µM

Which IC90 value belongs to CC(C)Cc1ccc(C(C)C(N)=NCCc2ccccc2)cc1 (centres undefined) ?
25.8 µM

Which IC90 value belongs to CC(c1ccccc1)N1CCN(C(=O)CCl)CC1 (centres undefined) ?
3.24 µM

Which IC90 value belongs to CC(C)CNc1nnnc2c1sc1nc(N3CCOCC3)c3c(c12)CC(C)(C)SC3 ?
> 100 µM

Which IC90 value belongs to COc1ccc(NC(=O)ON=C2c3ccccc3-c3ccccc32)cc1 ?
> 100 µM

Which IC90 value belongs to O=Cc1ccc(-c2ccc(Cl)cc2Cl)[nH]1 ?
> 100 µM

Which IC90 value belongs to N#CC(C#N)=C(N)CSc1cccc[n+]1[O-] ?
11 µM

Which IC90 value belongs to Cc1ccc2c(c1)c1c3n2CCN=C3CCC1 ?
19 µM

Which IC90 value belongs to COC(=O)[C@@H](NC(=O)O[C@@H]1C(=O)c2ccc(OC)cc2O[C@H]1c1cccc(C(F)(F)F)c1)C(C)C ?
> 100 µM

Which IC90 value belongs to Brc1ccc2c(c1)C(OC1CN3CCC1CC3)c1ccccc1CS2 (centres undefined) ?
28.4 µM

Which IC90 value belongs to Cc1ccc(OC(=O)CCN2C(=O)c3ccccc3C2=O)cc1C ?
> 100 µM

Which IC90 value belongs to Cc1ccc(NC(=O)COC(=O)C(NS(=O)(=O)c2ccc(Cl)cc2)C(C)O)cc1C (centres undefined) ?
8.97 µM

Which IC90 value belongs to Cc1ccc(/C=C2\C(=O)Nc3ccccc32)o1 ?
6.03 µM

Which IC90 value belongs to CCN(CCNCC(O)COc1ccccc1C(C)C)c1cccc(C)c1 (centres undefined) ?
28.1 µM

Which IC90 value belongs to COc1ccccc1N1C(=O)NC(=O)/C(=C/c2ccc([N+](=O)[O-])s2)C1=O ?
> 100 µM

Which IC90 value belongs to O=C(C1=C[C@@H](c2csc3ccccc23)C[C@@H](OCCCCO)O1)N1CCN(Cc2ccc3c(c2)OCO3)CC1 ?
47.8 µM

Which IC90 value belongs to O=S1(=O)CCC(N=Cc2ccc(-c3ccc(Cl)cc3)o2)C1 (centres undefined) ?
> 100 µM

Which IC90 value belongs to Cc1cc(=O)oc2c(C)c(OCC(=O)N3CCN(C(=O)C4COc5ccccc5O4)CC3)ccc12 (centres undefined) ?
86.1 µM

Which IC90 value belongs to CCCOc1ccc(C(=O)NC(=S)NCc2cccnc2)cc1 ?
28 µM

----------
# Tested on: M. tuberculosis H37Rv growth inhibition, 7H9 media
# assay-procedure: M. tuberculosis growth inhibition, HTS (AID 449762);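 note: bacterial growth assessed after seven days of incubation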
# condition-context: measured here: IC90 growth inhibition
Results filed as inconclusive are left out.
measured-metric: log10 of IC90 (log10 of the value in µM)
A difference of one corresponds to tenfold IC90; all values are log10 with IC90 in µM.

Which log10 of IC90 value belongs to COc1ccc(C2c3[nH]c4ccccc4c3CCN2Cc2cccn2-c2ncccn2)cc1C (centres undefined) ?
1.46

Which log10 of IC90 value belongs to CCC[C@@H]1C[C@@H](C(=O)NC(C(C)Cl)[C@H]2O[C@H](SC)[C@H](O)[C@@H](O)[C@H]2O)N(C)C1 (some centres undefined) ?
0.71

Which log10 of IC90 value belongs to NC(=O)N=Nc1c2[nH]c3ccccc3nc-2c2ccccc12 ?
0.85

Which log10 of IC90 value belongs to COC(=O)c1c(NC(=S)NN2CCN(C)CC2)sc2c1CCC(C)C2 (centres undefined) ?
1.41

Which log10 of IC90 value belongs to Cc1ccc2nc(-c3cccc(Br)c3)cc(C(=O)NC3=NCCS3)c2c1 ?
1.46

Which log10 of IC90 value belongs to CCCCCCCCn1c2c(c(=N)c3c1CCC3)CCCC2 ?
1.42

Which log10 of IC90 value belongs to Nc1ccccc1C#CC(=O)c1ccccc1 ?
1.63

Which log10 of IC90 value belongs to CC(C)=N/N=C1/NC(=O)C(Cc2ccccc2)S1 (centres undefined) ?
1.41

Which log10 of IC90 value belongs to NC(=S)N=Nc1ccc(NN=C(N)N)cc1 ?
1.39

Which log10 of IC90 value belongs to CCCCn1c(O)c(/C=C2/C=CC=N2)c(=O)[nH]c1=O ?
1.23

Which log10 of IC90 value belongs to COCCNC(=S)N/N=C(\C)c1ccc(OC)cc1 ?
1.69

Which log10 of IC90 value belongs to Cc1nn(Cc2ccccc2)c(C)c1C(=O)OCC(=O)c1cc(C)n(CC(F)(F)F)c1C ?
1.55

Which log10 of IC90 value belongs to O=C1C2C(c3ccccc3)(C(=O)N1c1ccc(Cl)cc1)C2(c1ccccc1)c1ccccc1 (centres undefined) ?
1.09

Which log10 of IC90 value belongs to COC(=O)CCc1nc2c(C#N)c(-c3ccc(Cl)cc3)ccn2n1 ?
0.52

Which log10 of IC90 value belongs to C=CCOc1c(Br)cc(CNc2nccs2)cc1OC ?
1.61

Which log10 of IC90 value belongs to COC(=O)CCc1sc(Nc2ccc(Br)cc2)nc1-c1ccc(OC)cc1 ?
1.64

Which log10 of IC90 value belongs to CNc1nc(SCc2ccccc2Cl)nc2c1CCCC2 ?
0.40

Which log10 of IC90 value belongs to COC(=O)C1=C(C)N(Cc2ccccc2)C(=NCc2cccc(Cl)c2)N[C@H]1c1ccccc1 ?
1.32

Which log10 of IC90 value belongs to COc1ccc(Nc2nc(N)c([N+](=O)[O-])c(NC3CCCCC3)n2)cc1 ?
1.27

Which log10 of IC90 value belongs to CCN(CC)S(=O)(=O)c1ccc(/C=C/C(=O)OCC#N)cc1 ?
1.60

Which log10 of IC90 value belongs to CCCCn1nc(C(=O)N[C@@H](CCSC)c2nc3ccccc3[nH]2)c2ccccc2c1=O ?
1.89

Which log10 of IC90 value belongs to CC1CCc2c(sc3ncnc(NCCCOC(C)C)c23)C1 (centres undefined) ?
1.83

Which log10 of IC90 value belongs to C/C(=N/Nc1ccnc2cc(Cl)ccc12)c1ccc(O)cc1 ?
1.43

Which log10 of IC90 value belongs to S=C(Nc1ccc(Cl)cc1)Nc1cccc2cnccc12 ?
0.72

Which log10 of IC90 value belongs to CCOC(=O)C1CCN(c2cc3c(cc2NC(=O)c2ccccc2Cl)n(C)c(=O)n3C)CC1 ?
1.73

Which log10 of IC90 value belongs to OCCCNc1cc(-c2ccnc(Nc3cccc(Cl)c3)n2)ccn1 ?
1.65

Which log10 of IC90 value belongs to O=C(CSc1nc2ncc(Br)cc2[nH]1)Nc1ccc2c(c1)OCO2 ?
1.21

Which log10 of IC90 value belongs to Nc1c(C(=O)O)cnc2c(-c3ccc(Cl)cc3)cnn12 ?
1.75

Which log10 of IC90 value belongs to Cc1cc(=O)n2[nH]c(Nc3cccc(Cl)c3)nc2n1 ?
1.52

Which log10 of IC90 value belongs to Cc1nc(-c2ccccc2)sc1C(=O)/C=C/c1ccccc1 ?
1.16

Which log10 of IC90 value belongs to O=[N+]([O-])c1ccc(O)c(-c2cc(C(F)(F)F)nc(-c3ccccc3)n2)c1 ?
1.37

Which log10 of IC90 value belongs to O=C(CCn1c(=O)c2cccn2c2cccnc21)N1CCN(c2cccc(Cl)c2)CC1 ?
1.62

Which log10 of IC90 value belongs to O=C(c1cc([N+](=O)[O-])cc([N+](=O)[O-])c1)N(Cc1nnc(-c2ccccc2Cl)o1)C1CC1 ?
0.93
